Target: T1, Human MAGEB2 (Melanoma-associated antigen B2) (human, UniProt O15479 1-319)
T1 construct: Intracellular antigen detected by IHC in FFPE material: CHO cells transfected with human MAGEB2 (mCherry vector with Myc/DDK tags, or ORF without tags)
T1 sequence: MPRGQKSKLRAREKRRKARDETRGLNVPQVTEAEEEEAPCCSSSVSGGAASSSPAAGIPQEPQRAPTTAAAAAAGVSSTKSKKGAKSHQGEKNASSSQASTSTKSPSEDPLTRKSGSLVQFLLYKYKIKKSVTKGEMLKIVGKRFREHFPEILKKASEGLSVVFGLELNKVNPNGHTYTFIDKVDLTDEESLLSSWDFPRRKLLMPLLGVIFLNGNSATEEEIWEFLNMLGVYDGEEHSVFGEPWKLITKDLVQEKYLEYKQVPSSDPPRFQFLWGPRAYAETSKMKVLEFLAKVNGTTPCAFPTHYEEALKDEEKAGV
Experiment: IHC on FFPE NCI-H1395 cells (endogenous MAGEB2)
Reported IHC Intensity by item:
Please give only the number in your answer, with no unit.

binder: 1C3 (antibody, V domains shown, also called MAGE-B2 (IC3); anti-MAGEB2 antibody 1C3) VH: QSLEESGGGLVQPEGSLTLTCTAFGVTLTNYYICWVRQAPGKGLEWVGCIDNANGRTYYASWAKGRFTISKTSSTTGTLQMTSLTAADTATYFCARSLATPLWGPGTLVTVSS VL: DIVMTQTPSSVEAAVGGTVTIKCQASQNISSYLAWYQQKPGQPPKLLIYRASTLASGVPSRFKGSGSGTQFTLTISDLECADAATYYCQSYDDSRSSNFFYAFGGGTEVVVKG
IHC Intensity: 0
--
binder: 4G17 (antibody, IgG1, V domains shown, Rabbit monoclonal IgG1; Tested as supernatant and as small batch purified antibody; also called MAGE-B2 (4G17); anti-MAGEB2 antibody 4G17) VH: QSLEESGGGLVQPEGSLTLTCTASGVTLSNYYICWVRQAPGKGLEWIGCIDNVNGRTYYASWAKGRFTISKTSSTTGTLQMTSLTAADTATYFCARSLATPLWGPGTLVTVSS VL: DIVMTQTPASVEAAVGGTVTIKCQASQNIDSYLAWYQQKPGQPPKLLIYRASTLASGVPSRFKGSGSGTEFTLTISDLECADAATYYCQSYDDSRSSSFFYGFGGGTEVVVK
IHC Intensity: 0
--
binder: 1J15 (antibody, IgG1, V domains shown, Rabbit monoclonal IgG1; Tested as supernatant and as small batch purified antibody; also called MAGE-B2 (IJ15); anti-MAGEB2 antibody 1J15) VH: QSLEESGGGLVQPEGSLTLTCTAFGFTLNNYYICWVRQAPGKGLEWIACIDNANGRTYYASWAKGRFTISKTSSTTVTLQMTSLTAADTATYFCARSLSTPLWGPGTLVTVSS VL: DIVMTQTPASVEAAVGGTVTIKCQASQSISSYLSWYQQKPGQPPKLLIYRASTLASGVPSRFRGSGSGTQFTLTISDLECADAATYYCQSYDDSSDNNFFYGFGGGTEVVVR
IHC Intensity: 0

Let us examine a further case.
Qu. Give IHC Intensity for 1I14 (antibody, V domains shown, also called MAGE-B2 (1i14)) VH: QSVEESGGRLVTPGTPLTLTCTISGFSLSSYAMSWVRQAPGKGLEWIGSIGGGGSAVYASWAKGRFTISKTSTTVDLRITSPTTEDTAMYFCGRGFYSIDLWGPGTLVTVSS VL: DVVMTQTPASVEATVGGTVTIKCQSSQSVYDNNALAWYQQNAGQRPRLLIYGASTLASGVPSRFSASGSGTEFTLTISDLECADAATYYCQCTYYVSSYQNDFGGGTEVVVKG
Ans. 0

Where do these numbers come from? They come from patent US20250282887A1.
